# target-of-assay: Avi-KRAS G12D/Q25A (1-169) GppNHp/3×FLAG-PI3KCA (157-299) (Homo sapiens, UniProt P01116, G12D/Q25A)
# Construct: Avi-KRAS G12D/Q25A (1-169) GppNHp
# Sequence (P01116 1-169 isoform P01116-2 G12D/Q25A limits assumed): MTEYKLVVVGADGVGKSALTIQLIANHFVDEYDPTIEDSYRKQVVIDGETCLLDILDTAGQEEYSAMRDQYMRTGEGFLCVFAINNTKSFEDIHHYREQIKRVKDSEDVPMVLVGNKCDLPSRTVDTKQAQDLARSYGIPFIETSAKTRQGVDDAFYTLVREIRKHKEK
# assay-explanation: HTRF PI3KCA-KRAS G12D/Q25A-GppNHp disruption assay
# cond: 1 h incubation
Each entry below carries its recorded IC50.
metric: IC50

- molecule: "NC(=O)N1CC(Nc2nc(OCC34CCCN3CCC4)nc3c(F)c(-c4ccc(F)c5sc(N)nc45)c(C(F)(F)F)cc23)C1"
  readout-value: "1 to 10 µM"
- molecule: "N#Cc1c(O)cccc1-c1c(C(F)(F)F)cc2c(N3CC4CCC(C3)N4)nc(OCC34CCCN3CCC4)nc2c1F"
  readout-value: "10 to 30 µM"
- molecule: "Nc1nc2c(-c3cc4nc(OC[C@@]56CCCN5C[C@H](F)C6)nc(O[C@H]5CNC[C@@H]5F)c4cc3C(F)(F)F)ccc(F)c2s1"
  readout-value: "10 to 30 µM"
- molecule: "CN1CCC[C@H]1COc1nc(NC2CCNC2)c2cc(Cl)c(-c3ccc(F)c4sc(N)nc34)c(F)c2n1 (stereo partly drawn)"
  readout-value: "1 to 10 µM"
- molecule: "CN(c1nc(OC[C@@]23CCCN2C[C@H](F)C3)nc2cc(-c3ccc(F)c4sc(N)nc34)c(C(F)(F)F)cc12)[C@H]1CNC[C@H]1F"
  readout-value: "0.1 to 1 µM"
- molecule: "CN1CCC[C@H]1COc1nc(NC2CN(C(=O)CN)C2)c2cc(-c3ccoc3)c(-c3ccc(F)c4sc(N)nc34)c(F)c2n1"
  readout-value: "10 to 30 µM"
- molecule: "COc1cc2c(N3CCNCC3)nc(OCC34CCCN3CCC4)nc2c(F)c1-c1ccc(F)c2sc(N)nc12"
  readout-value: "1 to 10 µM"
- molecule: "CN1CCC1COc1nc(NC2CNC2)c2cc(Cl)c(-c3ccc(F)c4sc(N)nc34)c(F)c2n1 (stereo not drawn)"
  readout-value: "10 to 30 µM"
- molecule: "NC(=O)N1C2CCC1CN(c1nc(OC[C@@]34CCCN3C[C@H](F)C4)nc3c(F)c(-c4ccc(F)c5sc(N)nc45)c(C(F)(F)F)cc13)C2"
  readout-value: "1 to 10 µM"
- molecule: "Nc1nc2c(-c3c(C(F)(F)F)cc4c(N[C@@H]5CCNC5)nc(OC[C@@]56CCCN5C[C@H](F)C6)nc4c3F)ccc(F)c2s1 (atropisomer, axis not shown) [Compound 248]"
  readout-value: "0.1 to 1 µM"
- molecule: "N#Cc1c(N)sc2c(F)ccc(-c3c(C(F)(F)F)cc4c(N5C[C@H]6CC[C@@H](C5)N6)nc(OC[C@@]56CCCN5C[C@H](F)C6)nc4c3F)c12"
  readout-value: "0.1 to 1 µM"
- molecule: "CN(c1nc(OCC23CCCN2CCC3)nc2c(F)c(-c3ccc(F)c4sc(N)nc34)c(C(F)(F)F)cc12)[C@@H]1CCNC1 (single isomer, unassigned) [Compound 236]"
  readout-value: "0.1 to 1 µM"
- molecule: "CN1CCC[C@H]1COc1nc(N2C[C@@H]3[C@H]2CCN3C(=O)CN)c2cc(Cl)c(-c3cccc4nc(N)sc34)c(F)c2n1"
  readout-value: "10 to 30 µM"
- molecule: "CN1C[C@H](OC(F)F)C[C@H]1COc1nc(NC2CNC2)c2cc(Cl)c(-c3ccc(F)c4sc(N)nc34)c(F)c2n1"
  readout-value: "1 to 10 µM"
- molecule: "C[C@@H]1CN(c2nc(OC[C@@]34CCCN3C[C@H](F)C4)nc3c(F)c(-c4ccc(F)c5sc(N)nc45)c(OC(F)F)cc23)[C@@H](C)CN1"
  readout-value: "1 to 10 µM"
- molecule: "Nc1nc2c(-c3c(C(F)(F)F)cc4c(N5CC[C@H]6CNC[C@H]65)nc(OC[C@@]56CCCN5C[C@H](F)C6)nc4c3F)ccc(F)c2s1"
  readout-value: "1 to 10 µM"
- molecule: "N#Cc1c(N)sc2c(F)ccc(-c3cc4nc(OC[C@@]56CCCN5C[C@H](F)C6)nc(N5CC6CCC(C5)N6)c4cc3C(F)(F)F)c12"
  readout-value: "0.1 to 1 µM"
- molecule: "Nc1nc2c(-c3c(C(F)(F)F)cc4c(NC5CNC5)nc(OCC56CCCN5CCC6)nc4c3F)ccc(F)c2o1"
  readout-value: "1 to 10 µM"
- molecule: "Nc1nc2c(-c3c(C(F)(F)F)cc4c(N5C[C@H]6CC[C@@H](C5)N6)nc(OC[C@@]56CCCN5C[C@H](F)C6)nc4c3O)ccc(F)c2s1"
  readout-value: "10 to 30 µM"
- molecule: "Nc1nc2c(-c3c(C(F)(F)F)cc4c(N5C[C@H]6CC[C@@H](C5)N6)nc(OCC5(CN6CCOCC6)CC5)nc4c3F)ccc(F)c2s1"
  readout-value: "1 to 10 µM"
- molecule: "Nc1nc2c(-c3c(C(F)(F)F)cc4c(NC5CNC5)nc(OCC56CCCN5CCC6)nc4c3F)ccc(F)c2s1"
  readout-value: "0.1 to 1 µM"
- molecule: "CN1CCC[C@H]1COc1nc(N2CCNCC2)c2cc(CC#N)c(-c3ccc(F)c4sc(N)nc34)c(F)c2n1"
  readout-value: "1 to 10 µM"
- molecule: "C[C@@H]1CN(c2nc(OC[C@@]34CCCN3C[C@@H](F)C4)nc3c(F)c(-c4ccc(F)c5sc(N)nc45)c(C(F)(F)F)cc23)CCN1"
  readout-value: "10 to 30 µM"
- molecule: "Nc1nc2c(-c3c(C(F)(F)F)cc4c(NC5C[C@H]6CCC5N6)nc(OCC56CCCN5CCC6)nc4c3F)ccc(F)c2s1 (stereo partly drawn)"
  readout-value: "0.1 to 1 µM"
